- studySystem: 26S proteasome, β2 subunit (trypsin-like activity) (Homo sapiens)
- Construct: purified human 26S proteasome; with other subunits of the 26S proteasome
- Sequence (Q99436 44-277): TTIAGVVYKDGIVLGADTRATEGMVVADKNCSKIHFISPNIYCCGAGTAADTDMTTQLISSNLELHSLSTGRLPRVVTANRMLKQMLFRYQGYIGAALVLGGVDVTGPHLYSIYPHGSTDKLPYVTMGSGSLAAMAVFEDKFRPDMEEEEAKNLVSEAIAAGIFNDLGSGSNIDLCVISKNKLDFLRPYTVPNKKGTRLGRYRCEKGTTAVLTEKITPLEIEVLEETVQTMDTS
- assayName: fluorogenic peptidase assay of purified human 26S proteasome with Ac-Arg-Leu-Arg-AMC
valueType: IC50 (µM)
The answer is to be given in µM; state only the numeric part.

Input line: Answer with the recorded IC50 of O=c1cc(-c2ccc(O)cc2)oc2cc(O)cc(O)c12 [apigenin] only.
Output line: 20

====

- studySystem: 26S proteasome, β1 subunit (caspase-like activity) (Homo sapiens)
- Construct: purified human 26S proteasome; with other subunits of the 26S proteasome
- Sequence (P28072 35-239): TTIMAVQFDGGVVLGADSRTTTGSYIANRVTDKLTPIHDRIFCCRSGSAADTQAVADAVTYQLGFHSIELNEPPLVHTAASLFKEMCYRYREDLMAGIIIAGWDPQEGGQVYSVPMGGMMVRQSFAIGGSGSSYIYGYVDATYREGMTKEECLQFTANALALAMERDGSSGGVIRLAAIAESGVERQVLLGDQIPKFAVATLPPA
- assayName: peptidase assay of purified human 26S proteasome with Z-Nle-Pro-Nle-Asp-aminoluciferin
valueType: pIC50
Worth noting: pIC50 values are minus log10 of concentrations stated in mol/L.

Input line: Answer with the recorded pIC50 of O=c1cc(-c2ccc(O)cc2)oc2cc(O)cc(O)c12 [apigenin] only.
Output line: 5.82
